- System: cloned human or rodent CNS receptors, channels, and transporters (PDSP panel)
- METHOD: PDSP GPCR panel primary binding assays at 10 μM
- CONDITION_LABEL: Receptor Sigma 2; primary assay, 10 μM; mean of Inhibition 1-4
So I've got a bunch of compounds here, and I need their Mean % values.

Batch request: Mean % per item, same order as input.
1. CCCCNc1ncc2c(-c3ccc(CN4CCN(C)CC4)cc3)cn([C@H]3CC[C@H](O)CC3)c2n1 [UNC2025C, UNC2025]
2. c1cn2cc(-c3ccc4cn[nH]c4c3)nc(Nc3ccc(N4CCOCC4)cc3)c2n1 [UNC10302678A, Entospletinib (GS-9973)]

1. 97.21%
2. 1.45%

Batch request: Mean % per item, same order as input.
1. Cl.NC(=O)c1cnc(N[C@@H]2CCCC[C@@H]2N)nc1Nc1cccc(-n2nccn2)c1 [UNC10302682A, P505-15 (PRT06207 HCl)]
2. O=c1oc2ccccc2cc1-c1cn2cc(Cc3ccc(F)cc3)sc2n1 [UNC10302680A, iMDK]

["65.76%", "22.9%"]
